biological target: FLuc-C-HiBiT (Photinus pyralis, UniProt P08659); construct: firefly luciferase with C-terminal HiBiT tag, E. coli expressed; experiment: biochemical; conditions: enzyme activity, 10 uM ATP; read-out: IC50 or SDR50 (mM) / FLuc E
Sequence (P08659 whole entry, looked up): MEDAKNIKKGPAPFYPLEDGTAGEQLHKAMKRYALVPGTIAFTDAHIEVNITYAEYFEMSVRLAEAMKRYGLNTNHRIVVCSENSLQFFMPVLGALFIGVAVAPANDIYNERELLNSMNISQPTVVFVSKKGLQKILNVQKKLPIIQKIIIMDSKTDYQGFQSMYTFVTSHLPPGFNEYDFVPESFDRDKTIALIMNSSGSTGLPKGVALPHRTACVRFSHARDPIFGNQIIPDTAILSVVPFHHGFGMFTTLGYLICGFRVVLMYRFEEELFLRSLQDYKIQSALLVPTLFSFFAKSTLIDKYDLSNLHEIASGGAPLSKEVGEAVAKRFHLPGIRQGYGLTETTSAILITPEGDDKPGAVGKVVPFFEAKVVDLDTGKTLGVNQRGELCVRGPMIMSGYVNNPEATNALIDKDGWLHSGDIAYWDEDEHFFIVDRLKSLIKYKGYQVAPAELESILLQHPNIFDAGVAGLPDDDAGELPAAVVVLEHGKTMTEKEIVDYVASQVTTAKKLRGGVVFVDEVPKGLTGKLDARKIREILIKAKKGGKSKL
quantity: log10(IC50) (log10 of the value in mM)

* CCc1ccc(Nc2nc(-c3ccccc3F)no2)cc1 | -2.20
* CCn1cc(-c2cc3c(cn2)CN(C)CCN3)cn1 | -1.65
* O=C(Nc1cccc(Cl)c1)c1cc(-c2ccc3c(c2)OCCO3)on1 | -3.20
* COc1cccc2cc(-c3nnc(-c4ccc(Cl)cc4)o3)c(=O)oc12 | -2.45
* CCC(CC)c1nn2cc(-c3ccccc3)nc2s1 | -3.06
* COc1ccc(-c2cc(N3CCCC(NC(=O)c4ccc(OC)c(OC)c4)C3)[nH]n2)cc1 (stereo not drawn) | -2.40
* CC(C)(C)C1CCc2nc(NC(=O)c3cccc(Cl)c3)sc2C1 (stereo not drawn) | -2.61
* Clc1ccc(Nc2ncc(-c3cccnc3)c3c2OCC3)cc1 | -1.74
* Cc1ccc(NC(=O)Nc2ccc(C)n(CC(=O)NC(C)c3cccnc3)c2=O)cc1 (stereo not drawn) | -2.80
* COc1ccc(CNC(=O)Nc2cccc(-c3ccc(N4CCOCC4)nn3)c2)cc1 | -2.71
* CCOc1ncccc1C(=O)OCC(=O)Nc1ccc(-c2nc3ccc(C)cc3s2)cc1 | -1.80
* Cc1ccc(-n2ncc3c(N4CCCC(C)C4)ncnc32)c(C)c1 (stereo not drawn) | -1.95
* Cc1ccc(-c2cc3c(=O)n(CCNC(=O)c4cccc(Cl)c4)ccn3n2)c(C)c1 | -2.40
